Origin of measurements: patent US20260125454A1

system_tested: CGRP antigen
experiment: cell-based or functional assay
Overview of reported Relative binding activity (%) vs Ref(Teva) across a group of binders:
State the answer as a number, implicitly in %.

Examples with answers:
1. C79 (antibody, V domains shown, 1F5-HC + 2B8-LC2; chimeric, human constant regions) VH: EVQLQQSGPELVKPGASVKISCKTSGYTFIDFNMHWVKQSHGKSLEWIGYIYPYNGDVVYNQNFTNKATLTVDSSSSTAYMELRRVTSEDSAIYYCAREGLGGYWGQGTTLTVSS VL: DVVLTQSPTSLAVSLGQRATISCQASQNIDGNTYMNWYQQKPGQPPKVLIYSIFNLESGIPARFSGSGSGTHFTLTIHPVEEEDAATYYCQQSNDYPYTFGGGTKLEIK	71.1
2. C245 (antibody, V domains shown, 3C1-HC + 3C1-LC; chimeric, human constant regions; also called chimeric antibody C245) VH: EVQLQQSGPELVKPGASMKISCKASGYSFTGYTMNWVKQSHGNNLEWIGLINPYIGNTHYNQKFKDKATFTVDRSSSTAYMALLSLTSEDSAVYYCARELDSGFDYWGQGTTLTVSS VL: DVLMTQTPLSLPVSLGDQASLSCRSSQNIVHSNGDTYLEWYLQKPGQSPKLLIYKVSNRFSGVPDRFSGSGSGTDFTLKISRVEAEDLGVYYCYQGSHVPWTFGGGTKLEIK	116

Below: the item to evaluate.
Record summary for C97 (antibody, V domains shown, 2A2-HC + 1F5-LC1; chimeric, human constant regions) VH: EVQLQQSGPELVKPGASVKISCKASGYTFTDYNMHWVKQSHGKSLEWIGYVYPYNGGSAYNQKFKSKATLTVDTSSSIAYMDLHSLTSEDSAVYYCAREGLGGYWGQGTTLAVSS VL: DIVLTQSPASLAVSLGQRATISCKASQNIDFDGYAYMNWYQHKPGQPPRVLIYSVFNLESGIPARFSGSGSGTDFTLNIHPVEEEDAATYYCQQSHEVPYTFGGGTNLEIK : reported Relative binding activity (%) vs Ref(Teva) = 98.4
